Biological target: FKBP12 (Homo sapiens (Human), UniProt P62942)
Sequence (P62942 whole entry): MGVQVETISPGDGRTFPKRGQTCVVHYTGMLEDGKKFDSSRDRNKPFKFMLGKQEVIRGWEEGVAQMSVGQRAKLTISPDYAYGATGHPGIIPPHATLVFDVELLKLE
pKd: −log10 of the molar value.
reported.endpoint: pKd

Request: Can you look up the measured pKd of COCCOC1CC2CCC(C)C(O)(O2)C(=O)C(=O)N2CCCCC2C(=O)OC(C(C)CC2CCC(OCC(=O)O)C(OC)C2)CC(=O)C(C)C=C(C)C(O)C(OC)C(=O)C(C)CC(C)C=CC=CC=C1C (stereo not shown) for me?
Response: < 9.00

Request: Item under review: COC1CC(CC(C)C2CC(=O)C(C)C=C(C)C(O)C(OC)C(=O)C(C)CC(C)C=CC=CC=C(C)C(OCC3CCC3)CC3CCC(C)C(O)(O3)C(=O)C(=O)N3CCCCC3C(=O)O2)CCC1O (stereo not shown) [Compound 36] . Reported pKd?
Response: > 9.52

Request: Find the recorded pKd belonging to COC1CC(CC(C)C2CC(=O)C(C)C=C(C)C(O)C(OC)C(=O)C(C)CC(C)C=CC=CC=C(C)C(OCC3CC3)CC3CCC(C)C(O)(O3)C(=O)C(=O)N3CCCCC3C(=O)O2)CCC1OCCO (stereo not shown) and report it.
Response: < 9.00

Request: Quick one: pKd for COC1CC(CC(C)C2CC(=O)C(C)C=C(C)C(O)C(OC)C(=O)C(C)CC(C)C=CC=CC=C(C)C(NS(=O)(=O)C3CC3)CC3CCC(C)C(O)(O3)C(=O)C(=O)N3CCCCC3C(=O)O2)CCC1O (mixture of isomers) ?
Response: < 9.00

---

Task for the reader: assign each of the following compounds its reported pKd.
Target: FKBP12 / FRB ternary complex (Homo sapiens (Human), UniProt P42345+P62942)
Sequence (P62942 whole entry): as above
Sequence (P42345 2012-2144): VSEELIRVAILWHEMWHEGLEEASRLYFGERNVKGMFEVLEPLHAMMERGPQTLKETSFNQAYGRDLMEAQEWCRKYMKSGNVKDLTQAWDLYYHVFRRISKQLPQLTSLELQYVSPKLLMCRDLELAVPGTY
Assay: SPR assay to characterize ternary complex formation with FKBP12 (FRB binding to rapalog-saturated FKBP12)
Settings: FRB dilutions with 100 nM rapalog on immobilized FKBP12
pKd: −log10 of the molar value.

Request: pKd for COCCS(=O)(=O)NC1CC2CCC(C)C(O)(O2)C(=O)C(=O)N2CCCCC2C(=O)OC(C(C)CC2CCC(O)C(OC)C2)CC(=O)C(C)C=C(C)C(O)C(OC)C(=O)C(C)CC(C)C=CC=CC=C1C (mixture of isomers) ?
Response: 6.10 to 6.52

Request: // returns reported pKd for input COC1CC(CC(C)C2CC(=O)C(C)C=C(C)C(O)C(OC)C(=O)C(C)CC(C)C=CC=CC=C(C)C(OC3CCOC3)CC3CCC(C)C(O)(O3)C(=O)C(=O)N3CCCCC3C(=O)O2)CCC1O (stereo not shown)
Response: < 6.10

Request: State the recorded pKd for this entry: CCOC(=O)COC1CCC(CC(C)C2CC(=O)C(C)C=C(C)C(O)C(OC)C(=O)C(C)CC(C)C=CC=CC=C(C)C(OCCOC)CC3CCC(C)C(O)(O3)C(=O)C(=O)N3CCCCC3C(=O)O2)CC1OC (stereo not shown)
Response: 6.10 to 6.52

Request: I would be grateful if you could share the reported pKd for CO[C@@H]1C[C@H](C[C@@H](C)[C@@H]2CC(=O)[C@H](C)/C=C(\C)[C@H](O)[C@@H](OC)C(=O)[C@H](C)C[C@H](C)/C=C/C=C/C=C(\C)[C@@H](OCCC3COC3)C[C@@H]3CC[C@@H](C)[C@@](O)(O3)C(=O)C(=O)N3CCCC[C@H]3C(=O)O2)CC[C@H]1O .
Response: 6.10 to 6.52

Request: Field request: pKd | item: COC1CC(CC(C)C2CC(=O)C(C)C=C(C)C(O)C(OC)C(=O)C(C)CC(C)C=CC=CC=C(C)C(OCC3CC3)CC3CCC(C)C(O)(O3)C(=O)C(=O)N3CCCCC3C(=O)O2)CCC1OCCCO (stereo not shown) [Compound 42]
Response: 6.10 to 6.52

Request: Any idea what pKd was measured for CCOC(=O)COC1CCC(CC(C)C2CC(=O)C(C)C=C(C)C(O)C(OC)C(=O)C(C)CC(C)C=CC=CC=C(C)C(OCC3CC3)CC3CCC(C)C(O)(O3)C(=O)C(=O)N3CCCCC3C(=O)O2)CC1OC (stereo not shown) [Compound 51] ?
Response: 6.10 to 6.52

Request: Recorded pKd for COC1C[C@H]2CC[C@H](C)[C@](O)(O2)C(=O)C(=O)N(C)C(C)C(=O)OC([C@H](C)C[C@@H]2CC[C@@H](OCCCS(C)(=O)=O)[C@H](OC)C2)CC(=O)C(C)/C=C(\C)C(O)C(OC)C(=O)C(C)CC/C=C/C=C/C=C/1C (stereo partly shown) , please?
Response: > 6.52

Request: Consider the compound COC1C(=O)C(C)CC/C=C/C=C/C=C(\C)[C@H](NS(=O)(=O)CCO)C[C@H]2CC[C@H](C)[C@](O)(O2)C(=O)C(=O)N(C)C(C)C(=O)OC([C@H](C)C[C@@H]2CC[C@@H](OC3CC3)[C@H](OC)C2)CC(=O)C(C)/C=C(\C)C1O (stereo partly shown) and give its measured pKd.
Response: 6.10 to 6.52

Request: Sample CO[C@@H]1C[C@H](C[C@@H](C)[C@@H]2CC(=O)[C@H](C)/C=C(\C)[C@@H](O)[C@@H](OC)C(=O)[C@H](C)C[C@H](C)/C=C/C=C/C=C(\C)[C@@H](NS(=O)(=O)CC3CCCCC3)C[C@@H]3CC[C@@H](C)[C@@](O)(O3)C(=O)C(=O)N3CCCC[C@H]3C(=O)O2)CC[C@H]1O — what was its pKd?
Response: 6.10 to 6.52

Request: Which value of pKd has been reported for CO[C@@H]1C[C@H](C[C@@H](C)[C@@H]2CC(=O)[C@H](C)/C=C(\C)[C@@H](O)[C@@H](OC)C(=O)[C@H](C)C[C@H](C)/C=C/C=C/C=C(\C)[C@@H](NS(=O)(=O)CC3CCOCC3)C[C@@H]3CC[C@@H](C)[C@@](O)(O3)C(=O)C(=O)N3CCCC[C@H]3C(=O)O2)CC[C@H]1O in the records?
Response: < 6.10

Ref: patent US11603377B2
